Listed below: TGI values for each entry.
System: NCI/ADR-RES ovarian
Test: NCI tumour cell line growth inhibition, 48 h

Consider the following illustrative entries.
Oc1ccc(O)c(Sc2nnc(CCCCCCCCc3nnc(Sc4cc(O)ccc4O)o3)o2)c1 :: > 100 µM
c1cc2c3c(c1)[C@@H]1O[C@@H]1c1cccc(c1-3)[C@@H]1O[C@H]21 :: 61.6 µM
COCCn1cc(-c2csc(-c3c[nH]c4ccccc34)n2)c2cccnc21 :: 6.9 µM
O=C(O)C(=Cc1ccnc2ccccc12)C(=O)O :: > 100 µM
O=C1CCc2cc3c(cc21)C(C(=O)O)CC3 (stereo unspecified) :: > 100 µM
CCOC(=O)c1c(SCCN2CCCCC2)n(-c2ccccc2)c(=S)n(-c2ccccc2)c1=O :: 41.7 µM
O=c1[nH]nc(N/N=C\c2ccc(Cl)cc2)c2ccccc12 :: 39 µM
CCOC(=O)NC(OCc1ccccc1)(C(=O)OC)C(F)(F)F (stereo unspecified) :: > 100 µM
Cc1ccc(S(=O)(=O)CC2CCCn3c2c(C#N)c2ccccc23)cc1 (stereo unspecified) :: > 100 µM
COc1ccc2c3c([nH]c2c1)-c1nc2ccccc2c(=O)n1CC3 :: > 25 µM

Task: # query: TGI of entry "Cc1ccc2c(c1)nc(C(=O)c1ccco1)c(C(F)(F)F)[n+]2[O-]"
Result: > 100 µM

Reference source for all entries: PubChem BioAssay (NCI)
